- Study system: RNA-directed RNA polymerase (Hepacivirus hominis, UniProt O39930)
- Sequence (O39930 whole entry): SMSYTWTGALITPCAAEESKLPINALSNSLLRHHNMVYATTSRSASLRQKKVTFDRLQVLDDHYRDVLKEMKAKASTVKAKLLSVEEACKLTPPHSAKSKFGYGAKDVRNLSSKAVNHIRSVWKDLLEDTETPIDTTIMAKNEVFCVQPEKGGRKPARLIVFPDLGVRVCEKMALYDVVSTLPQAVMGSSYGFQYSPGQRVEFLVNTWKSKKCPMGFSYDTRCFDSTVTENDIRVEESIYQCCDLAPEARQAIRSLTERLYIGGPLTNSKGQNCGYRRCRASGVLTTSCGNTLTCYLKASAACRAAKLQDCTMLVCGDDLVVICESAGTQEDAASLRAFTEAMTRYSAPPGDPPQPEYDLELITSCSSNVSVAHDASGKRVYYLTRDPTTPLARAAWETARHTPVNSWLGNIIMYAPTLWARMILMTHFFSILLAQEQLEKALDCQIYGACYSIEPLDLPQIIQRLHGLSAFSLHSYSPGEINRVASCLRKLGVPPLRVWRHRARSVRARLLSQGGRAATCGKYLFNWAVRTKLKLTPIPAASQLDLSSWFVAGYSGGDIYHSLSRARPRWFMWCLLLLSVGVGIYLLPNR
pIC50: −log10 of the molar value.

Smiles input	pIC50
Cn1c(-c2ccccc2)c(C2CCCCC2)c2sc(C(=O)O)cc21	7.60

* * *

- Study system: Human immunodeficiency virus type 1 protease (Human immunodeficiency virus 1, UniProt Q72874)

Smiles input	Ki
C=CCN1C(=O)N(CC=C)[C@H](Cc2ccccc2)[C@H](O)[C@@H](O)[C@H]1Cc1ccccc1	4.6 nM

* * *

- Test method notes: Binding affinity to soluble acetylcholine receptor (unknown origin)
- Design: species or system Homo sapiens
Measurement type: Ki (µM)

Smiles input	Unit info	Observed
COc1cc2c3cc1Oc1cc(ccc1O)C[C@@H]1c4c(cc(OC)c(O)c4Oc4ccc(cc4)C[C@@H]3N(C)CC2)CC[N+]1(C)C	µM	3.48

Where do the numbers come from? From ChEMBL document CHEMBL4321790.
